system-under-test: MAO B Ile199Ala-Tyr326Ala (Homo sapiens, UniProt P27338, I199A/Y326A)
Format: biochemical
measured-attribute: Ki

Cc1nccc2c1[nH]c1ccccc12 ... 165 µM
Cc1ccc2c(c1)c1c3n2CCNC3CCC1 (stereo not drawn) ... 4.1 µM
CC(C)=CCC/C(C)=C/CC/C(C)=C/CO [Farnesol, trans,trans-farnesol] ... 18 µM

====

system-under-test: MAO B Ile199Ala (Homo sapiens, UniProt P27338, I199A)
Sequence (P27338 1-520 I199A): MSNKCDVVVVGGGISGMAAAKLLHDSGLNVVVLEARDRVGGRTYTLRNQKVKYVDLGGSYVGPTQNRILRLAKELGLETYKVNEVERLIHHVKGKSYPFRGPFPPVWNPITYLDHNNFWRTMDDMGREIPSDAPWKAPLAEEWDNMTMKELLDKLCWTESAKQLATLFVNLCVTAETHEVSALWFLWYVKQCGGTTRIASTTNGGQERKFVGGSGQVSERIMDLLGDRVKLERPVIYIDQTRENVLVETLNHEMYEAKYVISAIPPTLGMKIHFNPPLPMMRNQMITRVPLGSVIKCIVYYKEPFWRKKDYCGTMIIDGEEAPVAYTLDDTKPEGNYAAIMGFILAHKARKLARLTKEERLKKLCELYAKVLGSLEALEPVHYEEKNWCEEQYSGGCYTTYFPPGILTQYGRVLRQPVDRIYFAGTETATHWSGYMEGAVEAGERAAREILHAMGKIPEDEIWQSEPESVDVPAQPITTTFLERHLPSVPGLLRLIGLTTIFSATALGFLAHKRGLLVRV
Format: biochemical
condition-description: Ki, Ile199Ala single mutant; pH 7.5
measured-attribute: Ki (µM)

CC(C)=CCC/C(C)=C/CC/C(C)=C/CO [Farnesol, trans,trans-farnesol] ... 2.7
C(=CCc1ccccc1)Cc1ccccc1 ... 8.1

Hello, the source for this data is paper PMC3228903, in case you need it.
